# Test system: Saccharomyces cerevisiae
# assay.text: protein stability index of tFT-peptide fusion (C-terminal peptide) (PSI (0-1 scale)); higher = more stable (slower turnover);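 also: PSI is a weighted mean of sequencing reads over stability bins, variants kept only with over 10 reads, mCherry proximal and sfGFP distal, peptide attached via GGGS linker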
# setup.conditions: genetic background: wild type; temperature: 30 C
Outcome: YES for protein stability index of at least 0.7; NO for anything lower.

IN: Threshold query (protein stability index >= 0.7) on PPAASSFRLSSC
OUT: YES

IN: Threshold query (protein stability index >= 0.7) on PEHGPWLFKGFF
OUT: NO

IN: Threshold query (protein stability index >= 0.7) on LDPHPFRGHACC
OUT: YES

IN: Threshold query (protein stability index >= 0.7) on GTGDGRHRCRWN
OUT: NO

IN: Threshold query (protein stability index >= 0.7) on RIRRITAGRQRY
OUT: YES

IN: Threshold query (protein stability index >= 0.7) on LTLADWYRIPVI
OUT: NO

* * *

# Tested on: Saccharomyces cerevisiae
# assay.text: protein stability index of tFT-peptide fusion (C-terminal peptide) (PSI (0-1 scale)); higher = more stable (slower turnover)
# setup.conditions: genetic background: das1 deletion; temperature: 37 C
Outcome: Yes for protein stability index of at least 0.5; No for anything lower.

# count of solved cases: 5
IN: Threshold query (protein stability index >= 0.5) on VRGLGFRWVWGW
OUT: Yes

IN: Threshold query (protein stability index >= 0.5) on TYSVIPSLALLP
OUT: Yes

IN: Threshold query (protein stability index >= 0.5) on LFGFILLGVSCC
OUT: No

IN: Threshold query (protein stability index >= 0.5) on FELSVSVFQSVV
OUT: No

IN: Threshold query (protein stability index >= 0.5) on VFSFGLLFQVCR
OUT: Yes

Further cases:
IN: Threshold query (protein stability index >= 0.5) on DLRGLGRFRISH
OUT: Yes

IN: Threshold query (protein stability index >= 0.5) on APPPLFLIVLHL
OUT: Yes

* * *

# Tested on: Saccharomyces cerevisiae
# assay.text: protein stability index of tFT-peptide fusion (C-terminal peptide) (PSI (0-1 scale)); higher = more stable (slower turnover)
# setup.conditions: genetic background: wild type; temperature: 30 C
Outcome: Condition met for protein stability index of at least 0.7; Condition not met for anything lower.

# count of solved cases: 2
IN: Threshold query (protein stability index >= 0.7) on ESFIKFALYIVN
OUT: Condition not met

IN: Threshold query (protein stability index >= 0.7) on ASSFVGLRWWAG
OUT: Condition met

Further cases:
IN: Threshold query (protein stability index >= 0.7) on SGYYTRVFICEV
OUT: Condition not met

IN: Threshold query (protein stability index >= 0.7) on RASLPSLFRSLL
OUT: Condition met

* * *

# Tested on: Saccharomyces cerevisiae
# assay.text: protein stability index of tFT-peptide fusion (C-terminal peptide) (PSI (0-1 scale)); higher = more stable (slower turnover)
# setup.conditions: genetic background: wild type; temperature: 30 C
experimental.readout: protein stability index
Answer using only a numeral; do not append any unit.

Below, 10 sequences whose answers are already recorded.
IN: Recorded protein stability index for PSPPPVLLPFFT , please?
OUT: 0.711

IN: Recorded protein stability index for GLPCLSPPLAPS , please?
OUT: 0.683

IN: Recorded protein stability index for DGVWVRCGTLGF , please?
OUT: 0.715

IN: Recorded protein stability index for DVVFVARGRAND , please?
OUT: 0.7

IN: Recorded protein stability index for GLFGFASPPPPS , please?
OUT: 0.25

IN: Recorded protein stability index for EYGECWCWSSWR , please?
OUT: 0.732

IN: Recorded protein stability index for PPLLPPPHPFPP , please?
OUT: 0.666

IN: Recorded protein stability index for SGGCVLRLWGFV , please?
OUT: 0.685

IN: Recorded protein stability index for QSNEHVRQSETS , please?
OUT: 0.682

IN: Recorded protein stability index for GYPIIIFYSAVQ , please?
OUT: 0.529

Further cases:
IN: Recorded protein stability index for VTRGGKLRRGRV , please?
OUT: 0.638

IN: Recorded protein stability index for VGGGRAALRWYG , please?
OUT: 0.673

IN: Recorded protein stability index for RKNQGKKREPRA , please?
OUT: 0.653
